# target: T1, recombinant human Vascular Endothelial Growth Factor a (Homo sapiens, UniProt P15692-4, fluorescently labeled with Alexa-647)
# T1 construct: human VEGFa, UniProt ID P15692, aa 27-191 as printed; the isoform is my reading of the limits 27-191; also called rhVEGFa; recombinant human VEGFa; source: recombinant
# T1 sequence (P15692 other isoform, or with tags, fused parts or gaps): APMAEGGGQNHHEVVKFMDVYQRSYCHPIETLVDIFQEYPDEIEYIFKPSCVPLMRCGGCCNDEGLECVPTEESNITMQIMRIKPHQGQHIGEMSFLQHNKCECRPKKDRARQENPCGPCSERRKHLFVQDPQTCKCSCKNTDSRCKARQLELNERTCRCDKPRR
# assay_notes: MST; Alexa-647-labelled rhVEGFa constant at 1 nM in solution, mAb2 WT or variants in varying concentrations; 295 K; 25 mM sodium citrate pH 6.0, 125 mM NaCl, 0.05% Tween 20; triplicates; NanoTemper Monolith NT.115
# setup_conditions: both partners purified
quantity: binding result

{"binder": "mAb2_SL52R_SH21R_SH85R_FH101P (antibody, V domains shown, as the heavy chain variable region of m1 (PDB 2FJF), with the stated changes; constant regions of an IgG1 isotype, already in the expression vector; as the light chain variable region of m1 (PDB 2FJF), with the stated change; light chain constant region from the expression vector; IgG1; also called mAb2 FH101P SL52R SH21R SH85R; source: CHO K1, transiently transfected, purified (protein A)) VH: EVQLVESGGGLVQPGGSLRLRCAASGFTISDYWIHWVRQAPGKGLEWVAGITPAGGYTYYADSVKGRFTISADTSKNTAYLQMNRLRAEDTAVYYCARFVPFLPYAMDYWGQGTLVTVSS VL: DIQMTQSPSSLSASVGDRVTITCRASQDVSTAVAWYQQKPGKAPKLLIYSARFLYSGVPSRFSGSGSGTDFTLTISSLQPEDFATYYCQQSYTTPPTFGQGTKVEIK", "quantity": "binding result", "value_measured": "no binding"}
{"binder": "mAb2_FH101P (antibody, V domains shown, as the heavy chain variable region of m1 (PDB 2FJF), with the stated change; constant regions of an IgG1 isotype, already in the expression vector; as the light chain variable region of m1 (PDB 2FJF); light chain constant region from the expression vector; IgG1; source: CHO K1, transiently transfected, purified (protein A)) VH: EVQLVESGGGLVQPGGSLRLSCAASGFTISDYWIHWVRQAPGKGLEWVAGITPAGGYTYYADSVKGRFTISADTSKNTAYLQMNSLRAEDTAVYYCARFVPFLPYAMDYWGQGTLVTVSS VL: DIQMTQSPSSLSASVGDRVTITCRASQDVSTAVAWYQQKPGKAPKLLIYSASFLYSGVPSRFSGSGSGTDFTLTISSLQPEDFATYYCQQSYTTPPTFGQGTKVEIK", "quantity": "binding result", "value_measured": "no binding"}
{"binder": "mAb2_SL50K_FH101P (antibody, V domains shown, as the heavy chain variable region of m1 (PDB 2FJF), with the stated change; constant regions of an IgG1 isotype, already in the expression vector; as the light chain variable region of m1 (PDB 2FJF), with the stated change; light chain constant region from the expression vector; IgG1; also called mAb2 FH101P SL50K; variant 8; source: CHO K1, transiently transfected, purified (protein A)) VH: EVQLVESGGGLVQPGGSLRLSCAASGFTISDYWIHWVRQAPGKGLEWVAGITPAGGYTYYADSVKGRFTISADTSKNTAYLQMNSLRAEDTAVYYCARFVPFLPYAMDYWGQGTLVTVSS VL: DIQMTQSPSSLSASVGDRVTITCRASQDVSTAVAWYQQKPGKAPKLLIYKASFLYSGVPSRFSGSGSGTDFTLTISSLQPEDFATYYCQQSYTTPPTFGQGTKVEIK", "quantity": "binding result", "value_measured": "no binding"}
